test: recombinant UMI read abundance after kanamycin selection (control-corrected) (log10(CPM+1)); higher = more efficient recombination; extreme values may be limits of the assay; sequences stand for … in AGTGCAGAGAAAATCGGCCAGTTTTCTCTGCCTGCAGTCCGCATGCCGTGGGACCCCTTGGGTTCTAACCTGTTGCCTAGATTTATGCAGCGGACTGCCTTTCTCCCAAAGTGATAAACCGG…AGGTTGGTTTCACT; site = the 11-nt donor;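 also: IS621 bridge recombinase in Escherichia coli cells against a fixed T5 target plasmid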
readout_label: recombinant UMI read abundance (log10)

- TAGCTAACATGGACCGGTTTTCCCGGTAATCCGTATTTGAA (site TAGCTACCTTT): 0.00585
- GAGCTCACATGGACCGGTTTTCCCGGTAATCCGTATTTGAA (site GAGCTCACTCT): 0.0248
- CTTCTGCCATGGACCGGTTTTCCCGGTAATCCGTATTTGGG (site CTTCTGCCTCC): 0.0114
- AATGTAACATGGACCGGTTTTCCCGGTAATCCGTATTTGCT (site AATGTACCTAG): 0
- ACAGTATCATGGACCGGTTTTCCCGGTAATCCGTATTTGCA (site ACAGTACCTTT): 0.00804
- CGGTAGTCATGGACCGGTTTTCCCGGTAATCCGTATTTGCC (site CGGAAGTCTGG): 0.759
- CACGGTCCATGGACCGGTTTTCCCGGTAATCCGTATTTGTT (site CACGGCCCTAA): 0.18
- AATTGTACATGGACCGGTTTTCCCGGTAATCCGTATTTGTC (site AATTGTACTGA): 0.692
- GCCACGGCATGGACCGGTTTTCCCGGTAATCCGTATTTGTA (site GCCACGTCTTA): 0.163
- TTTACGGCATGGACCGGTTTTCCCGGTAATCCGTATTTGCT (site TTTGCGGCTAG): 0.00519
- GTCCCTACATGGACCGGTTTTCCCGGTAATCCGTATTTGAG (site CTCCCTACTCT): 0.0129
- TATGGTACATGGACCGGTTTTCCCGGTAATCCGTATTTGGC (site TATGGTACTGC): 1.67
- TCGAACGCATGGACCGGTTTTCCCGGTAATCCGTATTTGCG (site TCGAACGCTCG): 0.00434
- GTATGCACATGGACCGGTTTTCCCGGTAATCCGTATTTGGA (site GTATGCACTTG): 0.783
- AGCCGGCCATGGACCGGTTTTCCCGGTAATCCGTATTTGAT (site AGCCGGCCTAT): 0.00427
- TCCACCGCATGGACCGGTTTTCCCGGTAATCCGTATTTGCA (site TCCACCGCTGG): 0
- AGGACTACATGGACCGGTTTTCCCGGTAATCCGTATTTGCA (site AGGAAGACTTG): 0
- GTAGGCGCATGGACCGGTTTTCCCGGTAATCCGTATTTGCG (site GTAGTCGCTCG): 0.407
- CGATGATCATGGACCGGTTTTCCCGGTAATCCGTATTTGCC (site CGATGATCTGG): 2
- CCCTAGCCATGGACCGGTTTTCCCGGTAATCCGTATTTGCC (site CCCTAGGCTGG): 0
- ATTTAGACATGGACCGGTTTTCCCGGTAATCCGTATTTGGT (site ATTCAGACTAC): 0.475
- CAAAGCTCATGGACCGGTTTTCCCGGTAATCCGTATTTGAA (site CAAAGCTCTTT): 3.18
- GGTCGTCCATGGACCGGTTTTCCCGGTAATCCGTATTTGTA (site GGTCGTCCTTA): 0.0245
- GGAGTGCCATGGACCGGTTTTCCCGGTAATCCGTATTTGGT (site GGAGTGTCTAC): 1.21
- ACCTCTACATGGACCGGTTTTCCCGGTAATCCGTATTTGTG (site ACCTCTACTCA): 0.0203
- TTTGCCGCATGGACCGGTTTTCCCGGTAATCCGTATTTGCT (site TTTGCTGCTAG): 0
- AGGACTCCATGGACCGGTTTTCCCGGTAATCCGTATTTGAC (site AGGACTGCTGT): 0
- GTCAGAACATGGACCGGTTTTCCCGGTAATCCGTATTTGGC (site GTTAGAACTGC): 0
- CCGTTTCCATGGACCGGTTTTCCCGGTAATCCGTATTTGCT (site CCGTTTGCTAG): 0
- TGCTAGGCATGGACCGGTTTTCCCGGTAATCCGTATTTGGA (site TGCTAGGCTCC): 0.0137
- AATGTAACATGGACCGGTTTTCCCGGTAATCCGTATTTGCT (site AGTGTAACTAG): 1.51
- AATTACGCATGGACCGGTTTTCCCGGTAATCCGTATTTGGA (site AATTAAGCTTC): 0.428
- AGCATTTCATGGACCGGTTTTCCCGGTAATCCGTATTTGAC (site AGCTTTTCTGT): 0.236
- GGCACTCCATGGACCGGTTTTCCCGGTAATCCGTATTTGAA (site GGCAGTCCTTT): 0.00862
- TGGCAGGCATGGACCGGTTTTCCCGGTAATCCGTATTTGGC (site TGGCCGGCTGC): 0
- CAAGCGGCATGGACCGGTTTTCCCGGTAATCCGTATTTGTG (site CAAGCGTCTCA): 1.66
